test system: K-562 leukemia; assay: NCI-60 one-dose screen, 48 h (100 = growth as untreated, 0 = no growth, -100 = all killed); details: 10 µM unless noted
The panel holds about 83,000 compounds, 20% with a hit somewhere; the sample as a whole holds those more often. Activity calls are given as the source filed them. The calls were made as follows: active = growth percent below 10; inactive = the rest.
growth: recorded values

Worked cases, growth given:
Cc1ccc2cnc(N)c(C#Cc3cc(C(=O)Nc4ccc(CN5CCN(C)CC5)c(C(F)(F)F)c4)cnc3C)c2c1 = -43% (active)
O=C(/C=C/c1ccco1)Nc1ncc(Cc2cc(Cl)ccc2Cl)s1 = 7.9% (active)
CN1CCN(Cc2ccc(NC(=O)c3cncc(C#Cc4cnc(N)cc4C#N)c3)cc2C(F)(F)F)CC1 = 15.9% (inactive)

Lab book: growth of Cc1cc(C(=O)CCCC(=O)c2cc(C)c(O)c(C)c2)cc(C)c1O noted as 27.4% (inactive)

* * *

test system: SK-MEL-2 melanoma; test: NCI-60 one-dose screen, 48 h; conditions: 10 µM unless noted
About 83,000 compounds went through this panel and 20% of them were active in at least one assay; those are over-represented in the sample as a whole. Calls of active or inactive are those of the source. Rule for the calls: active = growth percent below 10; inactive = the rest.
The categories you may choose from are 1 for active, -1 for inactive

## Task Per the assay record, what outcome was assigned to Clc1ccc(-c2cc(-c3ccccc3)nc(N3CCN(CCCNc4ccnc5cc(Cl)ccc45)CC3)n2)cc1 ?
## Result -1

## Task Per the assay record, what outcome was assigned to Cc1nc2sc(C(=O)Nc3ccccn3)c(N)c2cc1C(C)O (centres undefined) ?
## Result -1

* * *

test system: RPMI-8226 leukemia; test: NCI-60 one-dose screen, 48 h; conditions: 10 µM unless noted
This is part of a sample that, as a whole, favours compounds with a hit. Of some 83,000 tested, about 20% had one in any assay. The source made the active and inactive calls. The calls were made as follows: active = growth percent below 10; inactive = the rest.
The categories you may choose from are active, inactive

Cc1oc(-c2ccc(Cl)cc2)nc1C1=NN(C(=O)c2ccncc2)C(c2ccccc2)C1 (stereo unspecified) = inactive
CS(=O)(=O)Nc1cc(-c2ccc3ncnc(Nc4ccc(OCc5ccccn5)c(Cl)c4)c3c2)cnc1Cl = active
O=C1C(Cl)=C(Nc2ccccc2)C(=O)c2ccccc21 = active
CCSc1ccnc(N)n1 = inactive
COc1ccc(C(O)c2cc3c(N)c(C(=O)Nc4cccc5ccccc45)sc3nc2C)cc1 (stereo unspecified) = inactive
Cc1nn(C)c2ncnc(N/N=C/c3cccc(O)c3O)c12 = active
Cc1ccc2nc(-c3ccc(C(=O)N/N=C/c4ccc([N+](=O)[O-])cc4)cc3)[nH]c2c1 = inactive
O=C1CCC(C(=O)N/N=C/c2cc(F)ccc2F)N1 (stereo unspecified) = inactive
CC1(C)CC[C@]23CC[C@]4(C)[C@H](CC[C@@H]5[C@@]6(C)C/C(=C/O)C(=O)C(C)(C)[C@@H]6CC[C@]54C)[C@H]2[C@H]1OC3 = inactive
CCN1C2CCC1/C(=C\c1ccccc1)C(=O)/C2=C/c1ccccc1 = inactive

## Task Per the assay record, what outcome was assigned to C=C(C)[C@@H]1CC[C@]2(C(=O)N3CCN(C)CC3)CC[C@]3(C)[C@H](CC[C@@H]4[C@@](C)(CCC(=O)O)[C@H](C(=C)C)CC[C@]43C)[C@@H]12 ?
## Result inactive

## Task Per the assay record, what outcome was assigned to CN(C)/C(N)=N/N=C(\c1ccccc1)c1ccccn1 ?
## Result inactive

## Task Per the assay record, what outcome was assigned to CN(C)CCCn1c2c(c3cnccc3c1=O)C(=O)c1ccccc1-2 ?
## Result active

## Task Per the assay record, what outcome was assigned to COC(=O)c1c2c(c(C)[n+]([O-])c1C)C(=O)C(NCc1ccccc1)=CC2=O ?
## Result inactive

## Task Per the assay record, what outcome was assigned to COC(=O)/C=C1/SC(=Nc2ccc(F)cc2)N(CCc2c[nH]c3ccc(O)cc23)C1=O ?
## Result active

## Task Per the assay record, what outcome was assigned to FC(F)(F)c1[nH]ncc1-c1nc2ccc3[nH]ncc3c2c2c1CCCC2 ?
## Result inactive

## Task Per the assay record, what outcome was assigned to O=C(C1=Cc2cc3ccccc3n2Cc2cnnn21)c1ccc(F)cc1 ?
## Result inactive

## Task Per the assay record, what outcome was assigned to CC1(C)CC(=O)C2=C(C1)C(c1ccc(Cl)cc1)n1ncc(C#N)c1N2 (stereo unspecified) ?
## Result inactive

## Task Per the assay record, what outcome was assigned to CCOC(=O)C1=C(CCl)N(C)C(=O)NC1c1ccc2c(c1)OCO2 (stereo unspecified) ?
## Result inactive

## Task Per the assay record, what outcome was assigned to COc1cc(-c2ccc[nH]2)[nH]c1/C=C1\N=C(C)C(CC(=O)OCC(C)(C)C)=C1C ?
## Result active

## Task Per the assay record, what outcome was assigned to O=C(O)CCCCCCCCCCN1C(=O)/C(=C2/C(=O)N(CC(=O)O)c3ccc(Br)cc32)SC1=S ?
## Result inactive

* * *

growth: recorded values
tested on: OVCAR-3 ovarian; experiment: NCI-60 one-dose screen, 48 h (100 = growth as untreated, 0 = no growth, -100 = all killed); details: 10 µM unless noted
Compounds without any hit were thinned out: in the full panel of roughly 83,000, 20% have a hit.
Give the number; % is assumed, so skip it.

C=C(C)[C@@H]1CC[C@]2(C(=O)Nc3ccccn3)CC[C@]3(C)[C@H](CC[C@@H]4[C@@]5(C)CCCNC(C)(C)[C@@H]5CC[C@]43C)[C@@H]12 = 20.9
Nc1ncnc2c1N=C(c1ccc(F)cc1)CC(c1cccc(Nc3ccnc4cc(Cl)ccc34)c1)N2 (configuration not stated) = 88.9
Cc1ccc(OCCOCCOCCOc2ccc(C)n(O)c2=S)c(=S)n1O = 15.9

Lab book: growth of Cc1c(C(C)(C)O)cn2ncnc(Oc3ccc(NC(=O)Nc4ccc(Cl)c(C(F)(F)F)c4)c(F)c3)c12 noted as 47.6

Lab book: growth of O=C1O[C@@H](c2ccccc2Cl)[C@@H]2c3cc4c(cc3CCN12)OCO4 noted as 100

Lab book: growth of O=CCCCOCc1ccccc1 noted as 110

Lab book: growth of CCOC(=O)C/C(=N\Nc1cc(=O)[nH]c2ccc(C)cc12)C(=O)OCC noted as 101

Lab book: growth of ClCCn1cnc2c(SCc3ccccc3)ncnc21 noted as 73.4

Lab book: growth of Cc1ccc2nc(-c3ccc(C(=O)N/N=C/c4ccc([N+](=O)[O-])cc4)cc3)[nH]c2c1 noted as 115

Lab book: growth of Cc1ccc(O)c(NC(=O)c2cccc(Nc3ccnc(C(F)(F)F)c3)c2)c1 noted as 93.2

Lab book: growth of CC/C(=C(/c1ccc(O)cc1)c1ccc(OCCN2CCCCC2)cc1)c1ccc(OC)cc1 noted as 66.1

Lab book: growth of CS(=O)(=O)Nc1cc(-c2ccc3ncnc(Nc4ccc5c(cnn5Cc5ccncc5)c4)c3c2)cnc1Cl noted as 37

Lab book: growth of COCC(=O)Oc1cc(-c2ccc(C)cc2C)c(OC(=O)COC)c(-c2ccc(C)cc2C)c1 noted as 51.9

Lab book: growth of Cn1c(=O)[nH]c(=O)c2nc3c(nc21)-c1ccccc1C3=O noted as 107

Lab book: growth of CNC(=O)c1cc(Oc2ccc3c(c2)sc2nc(-c4cc(C(F)(F)F)cc(C(F)(F)F)c4)cn23)ccn1 noted as 68.3

Lab book: growth of Cc1ccc2c(c1)sc1nc(-c3c[nH]c4ccccc34)c(Nc3ccccc3)n12 noted as 99.2

Lab book: growth of CCOC(=O)C(CCN(C)C)c1ccccc1 (configuration not stated) noted as 96.4

* * *

system: NCI-H226 lung; assay: NCI-60 one-dose screen, 48 h (100 = growth as untreated, 0 = no growth, -100 = all killed); details: 10 µM unless noted
About 83,000 compounds went through this panel and 20% of them were active in at least one assay; those are over-represented in the sample as a whole. The source made the active and inactive calls. How the source made its calls: active means growth percent below 10; inactive means the rest.
measuredAttribute: growth

Worked cases, growth given:
O=C(NC1CCC(Br)CC1)C1CCCC(S(=O)(=O)NC2CCCCC2)C1 (centres undefined) = 19.7% [25 µM] (inactive)
COC(=O)c1c2c(c(C)[n+]([O-])c1C)C(=O)C(NCc1ccccc1)=CC2=O = 73.3% (inactive)
Cc1cccc(N2C(=O)/C(=C/C(Cl)=C/c3ccc([N+](=O)[O-])cc3)SC2=S)c1C = -38.1% (active)
Cc1ncc(C(=O)Nc2ccc(CN3CCN(C)CC3)c(C(F)(F)F)c2)cc1C#Cc1cnc(N)c2ccc(C#N)cc12 = 0.011% (active)
CS(=O)(=O)c1ccc(-c2nc3ccccc3n2CC(=O)N/N=C/c2ccccc2)cc1 = 98.8% (inactive)
CCOC(=O)c1nnn(-c2no[n+]([O-])c2-c2ccc(OC)cc2)c1COc1cccc2cccnc12 = 8.91% (active)
COc1cc(-c2nccc3[nH]c(-c4cccc5[nH]ccc45)nc23)cc(OC)c1OC = 34% (inactive)
COc1cc(-c2cc(-c3ccc(Nc4nc(Nc5ccc(Cl)cc5)nc(Nc5ccc(Cl)cc5)n4)cc3)no2)cc(OC)c1OC = 78% (inactive)
COC1/C=C/OC2(C)Oc3c(C)c(O)c4c(O)c(c(/C=N/N(c5ccccc5)c5ccccc5)c(O)c4c3C2=O)NC(=O)C(C)=C/C=C/C(C)C(O)C(C)C(O)C(C)C(OC(C)=O)C1C (centres undefined) = -47.9% (active)
CSc1ccc2c3c(n(C[C@H](O)CO)c(=O)c2c1)-c1ccccc1C3=O = 12.8% (inactive)

Lab book: growth of Cc1cccc(N=Nc2cccc(C)c2)c1 noted as 100% (inactive)

Lab book: growth of Cc1nc([P+](c2ccccc2)(c2ccccc2)c2ccccc2)c(N2CCCCC2)o1 noted as 53.9% (inactive)

Lab book: growth of C(=C(\C1=NCCN1)n1ccc2ccccc21)/c1ccccc1 noted as 93.5% (inactive)
